Test: Peak plasma concentration in rat at 1.5 mg/kg, iv bolus dose
Type: ADME, organism-based
Set-up: dose 1.5 mg/kg, route intravenous
assay_endpoint: Cmax (µM)
Express the result in µM but write the number alone.

Task: Quick one: Cmax of CC1=NN(c2ccccc2)C(=O)C1 [EDARAVONE] ?
Result: 20

The reported measurements were obtained from ChEMBL document CHEMBL3217746.
